- target.system: human V1a receptor (Homo sapiens, UniProt P37288)
- Sequence (P37288 whole entry): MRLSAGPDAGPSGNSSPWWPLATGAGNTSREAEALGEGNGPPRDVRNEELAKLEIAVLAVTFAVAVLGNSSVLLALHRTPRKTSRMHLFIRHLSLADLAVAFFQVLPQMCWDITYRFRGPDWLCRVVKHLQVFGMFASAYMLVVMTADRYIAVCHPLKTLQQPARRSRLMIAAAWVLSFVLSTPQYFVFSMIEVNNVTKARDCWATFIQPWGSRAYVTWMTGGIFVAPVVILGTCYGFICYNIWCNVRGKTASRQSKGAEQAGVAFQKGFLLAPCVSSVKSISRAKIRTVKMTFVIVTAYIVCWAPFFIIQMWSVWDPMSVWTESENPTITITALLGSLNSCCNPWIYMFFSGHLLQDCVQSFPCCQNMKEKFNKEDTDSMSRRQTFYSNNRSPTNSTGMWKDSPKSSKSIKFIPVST
- test.summary: Cellular in vitro assay for determining vasopressin receptor activity, V1a receptor cell line (CHO, aequorin luminescence)
- stated.conditions: CHO cell line transfected with human V1a receptor; [Arg]-vasopressin at EC50 concentration; read-out: IC50 hV1a
parameter.measured: log10(IC50) (log10 of the value in nM)
In plain terms, each number is the log10 of measured IC50 in nM.

I am curious: what log10(IC50) value has been reported for O=C(NCCC(F)(F)F)c1cccc(Cl)c1-n1cnc(Cn2nc(-c3ccc(Cl)cc3)n(C[C@@H](O)C(F)(F)F)c2=O)n1 ? 2.51

I am curious: what log10(IC50) value has been reported for Cc1csc(NC(=O)c2ccccc2-n2cnc(Cn3nc(-c4ccc(Cl)cc4)n(C[C@H](O)C(F)(F)F)c3=O)n2)n1 ? 0.40

I am curious: what log10(IC50) value has been reported for O=C(NCc1cc(F)ccc1F)c1ccccc1-n1cnc(Cn2nc(-c3ccc(Cl)cc3)n(C[C@H](O)C(F)(F)F)c2=O)n1 ? 0.73

I am curious: what log10(IC50) value has been reported for CNCC(=O)Nc1ncccc1-n1cnc(Cn2nc(-c3ccc(Cl)cc3)n(C[C@H](O)C(F)(F)F)c2=O)n1 ? 0.32

I am curious: what log10(IC50) value has been reported for O=C(NC1CC1)c1cccnc1-n1nc(Cn2nc(-c3ccc(Cl)cc3)n(C[C@H](O)C(F)(F)F)c2=O)nc1C(=O)N1CCS(=O)(=O)CC1 ? 2.72

* * *

- target.system: UniProt P37288
- test.summary: Cellular in vitro assay for determining vasopressin receptor activity, V1a receptor cell line (CHO, aequorin luminescence)
- stated.conditions: CHO cell line transfected with human V1a receptor; [Arg]-vasopressin at EC50 concentration; read-out: IC50 hV1a
parameter.measured: pIC50
The read-out pIC50 is expressed as -log10 of concentration in moles per litre.

I am curious: what pIC50 value has been reported for CN(CC(F)(F)F)C(=O)c1ccccc1-n1cnc(Cn2nc(-c3ccc(Cl)cc3)n(C[C@H](O)C(F)(F)F)c2=O)n1 ? 8.23

I am curious: what pIC50 value has been reported for O=C(N[C@H]1C[C@H]1F)c1cccc(Cl)c1-n1cnc(Cn2nc(-c3ccc(Cl)cc3)n(C[C@@H](O)C(F)(F)F)c2=O)n1 (racemic) ? 7.14

I am curious: what pIC50 value has been reported for CC(C)C(=O)Nc1ncccc1-n1cnc(Cn2nc(-c3ccc(Cl)cc3)n(C[C@H](O)C(F)(F)F)c2=O)n1 ? 7.01

* * *

Please respond with reported pIC50 for every item in the list.
- target.system: human V1a receptor (Homo sapiens)
- test.summary: Cellular in vitro assay for determining vasopressin receptor activity, V1a receptor cell line (CHO, aequorin luminescence)
- stated.conditions: CHO cell line transfected with human V1a receptor; [Arg]-vasopressin at EC50 concentration; read-out: IC50 hV1a
The read-out pIC50 is expressed as -log10 of concentration in moles per litre.

I am curious: what pIC50 value has been reported for CC(C)(N)CNC(=O)c1nc(Cn2nc(-c3ccc(Cl)cc3)n(C[C@H](O)C(F)(F)F)c2=O)nn1-c1cnccc1C(=O)NCC(F)(F)F [Example 534] ? 6.74

I am curious: what pIC50 value has been reported for NC(=O)C1CCCN1C(=O)c1cccc(Cl)c1-n1cnc(Cn2nc(-c3ccc(Cl)cc3)n(C[C@@H](O)C(F)(F)F)c2=O)n1 (mixture of isomers) [Example 400] ? 6.24

I am curious: what pIC50 value has been reported for CCn1ccc(C(=O)Nc2ncccc2-n2cnc(Cn3nc(-c4ccc(Cl)cc4)n(C[C@H](O)C(F)(F)F)c3=O)n2)n1 [Example 110] ? 8.20

I am curious: what pIC50 value has been reported for O=C(NC1CCCC1)c1ccccc1-n1cnc(Cn2nc(-c3ccc(Cl)cc3)n(C[C@H](O)C(F)(F)F)c2=O)n1 [Example 343] ? 9.06

I am curious: what pIC50 value has been reported for O=C(Nc1ncccc1-n1cnc(Cn2nc(-c3ccc(Cl)cc3)n(C[C@H](O)C(F)(F)F)c2=O)n1)c1ccncn1 [Example 143] ? 7.82

I am curious: what pIC50 value has been reported for O=C(c1ncccc1-n1cnc(Cn2nc(-c3ccc(Cl)cc3)n(C[C@@H](O)C(F)(F)F)c2=O)n1)N1CCC(O)(C(F)(F)F)C1 (some centres unmarked) [Example 468] ? 6.38

I am curious: what pIC50 value has been reported for O=C(Nc1ncccc1-n1cnc(Cn2nc(-c3ccc(Cl)cc3)n(C[C@H](O)C(F)(F)F)c2=O)n1)c1cncc(F)c1 [Example 93] ? 8.12

I am curious: what pIC50 value has been reported for NC(=O)[C@@H]1CCCN1C(=O)c1ccccc1-n1cnc(Cn2nc(-c3ccc(Cl)cc3)n(C[C@H](O)C(F)(F)F)c2=O)n1 [Example 195] ? 6.98

I am curious: what pIC50 value has been reported for COCC(=O)Nc1cccnc1-n1cnc(Cn2nc(-c3ccc(Cl)cc3)n(C[C@H](O)C(F)(F)F)c2=O)n1 [Example 40] ? 7.59

I am curious: what pIC50 value has been reported for CCn1cc(C(=O)Nc2ncccc2-n2cnc(Cn3nc(-c4ccc(Cl)cc4)n(C[C@H](O)C(F)(F)F)c3=O)n2)cn1 [Example 112] ? 6.77

I am curious: what pIC50 value has been reported for O=C(c1ncccc1-n1cnc(Cn2nc(-c3ccc(Cl)cc3)n(C[C@H](O)C(F)(F)F)c2=O)n1)N1CCOCC1 [Example 446] ? 7.33

meta.source: patent US11173151B2
